# credit: PubChem BioAssay AID1963851

- Test system: 188146-221-R-J1-PDC complex spheroid viability
- ASSAY NAME: Anticancer human tumor 188146-221-R-J1-PDC patient-derived colon adenocarcinoma cell line growth inhibition [POLQ]
- CONDITION NOTES: second compound 1 µM; first compound 0.0316 µM; active compounds read low
METRIC: viability, T/C (%)
Quick reminder: number only, in %, skip the unit.

Here are 4 molecules together with their reported answers.
# MOLECULE, viability, T/C / %
data = [
    ("O=C(Nc1ccc(O)c(NS(=O)(=O)c2ccc(F)cc2)c1)c1ccc(-c2ccccc2)cc1 + Nc1ccc(C#CCN(C(=O)Cc2ncc(C(F)(F)F)cc2C(F)(F)F)c2ccc(F)cc2)nn1", 124),
    ("O=C(c1cc(Cc2n[nH]c(=O)c3ccccc23)ccc1F)N1CCN(C(=O)C2CC2)CC1 + Nc1ccc(C#CCN(C(=O)Cc2ncc(C(F)(F)F)cc2C(F)(F)F)c2ccc(F)cc2)nn1", 117),
    ("COc1cccc2c1C(=O)c1c(O)c3c(c(O)c1C2=O)CC(O)(C(=O)CO)CC3OC1CC(N)C(O)C(C)O1 (stereo not given) + Nc1ccc(C#CCN(C(=O)Cc2ncc(C(F)(F)F)cc2C(F)(F)F)c2ccc(F)cc2)nn1", 83.7),
    ("CNCc1ccc(-c2[nH]c3cc(F)cc4c3c2CCNC4=O)cc1 + Nc1ccc(C#CCN(C(=O)Cc2ncc(C(F)(F)F)cc2C(F)(F)F)c2ccc(F)cc2)nn1", 106),
]

Shifting focus to the molecule that follows.
Inquiry: Please report the recorded viability, T/C for COc1cccc(OCCCN)c1-c1cc(Nc2cnc(C#N)cn2)n[nH]1 + Cc1cccc(N(C)C(=O)C2C(O)CCN2c2nc(C)cc(C(F)(F)F)c2C#N)c1 .
Reply text: 54.4

---

Parameter viability, T/C: see the listing below.
- Test system: 188146-221-R-J1-PDC complex spheroid viability
- ASSAY NAME: Anticancer human tumor 188146-221-R-J1-PDC cell line growth inhibition [POLQ];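 note: spheroids exposed to compounds for seven days; 100% = DMSO vehicle control viability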
- CONDITION NOTES: second compound 0.0316 µM; first compound 0.316 µM; active compounds read low

Here are 4 compounds together with their reported answers.
# COMPOUND, viability, T/C
records = [
    ("COc1cc2cc(C(=O)CCC(=O)O)sc2cc1OC + Cc1cccc(N(C)C(=O)C2C(O)CCN2c2nc(C)cc(C(F)(F)F)c2C#N)c1", "94.2%"),
    ("COc1cccc2c1C(=O)c1c(O)c3c(c(O)c1C2=O)CC(O)(C(=O)CO)CC3OC1CC(N)C(O)C(C)O1 (stereo not given) + Nc1ccc(C#CCN(C(=O)Cc2ncc(C(F)(F)F)cc2C(F)(F)F)c2ccc(F)cc2)nn1", "26.7%"),
    ("COc1cccc2c1C(=O)c1c(O)c3c(c(O)c1C2=O)CC(O)(C(=O)CO)CC3OC1CC(N)C(O)C(C)O1 (stereo not given) + COC1C(OC(N)=O)C(O)C(Oc2ccc3c(O)c(NC(=O)c4ccc(O)c(CC=C(C)C)c4)c(=O)oc3c2C)OC1(C)C", "33.8%"),
    ("CC(C)n1c(=O)n(C)c2cnc3cc(F)c(-c4ccc(OCCCN5CCCCC5)nc4)cc3c21 + COC1C(OC(N)=O)C(O)C(Oc2ccc3c(O)c(NC(=O)c4ccc(O)c(CC=C(C)C)c4)c(=O)oc3c2C)OC1(C)C", "101%"),
]

Shifting focus to the compound that follows.
Inquiry: Please report the recorded viability, T/C for CC1COCCN1c1cc(C2(S(C)(=N)=O)CC2)nc(-c2ccnc3[nH]ccc23)n1 (stereo not given) + Nc1ccc(C#CCN(C(=O)Cc2ncc(C(F)(F)F)cc2C(F)(F)F)c2ccc(F)cc2)nn1 .
Reply text: 95.7%
